For each of the compounds below, state its growth inhibition.
- Experimental details: NCI Yeast Anticancer Drug Screen. Data for the mlh1 rad18 strain (AID 175)
- Particulars: S. cerevisiae mlh1 rad18 strain growth inhibition; at 5.0 µM (retest, dose inferred, filed as 0.5); active compounds read high
Compounds without any hit were thinned out: in the full panel of roughly 79,000, 15% have a hit.
Write the value in % as a bare number.

Q: Query (compound): "O=C(NNc1ccc(F)cc1)C12CC3CC(CC(C3)C1)C2" ; field requested: growth inhibition
A: 2

Q: # iterate: C/C=C(\C)C(=O)OC1C(C)C2(O)C(C=C(CO)CC3(O)C(=O)C(C)=CC32)C2C(C)(C)C12OC(=O)CCCCCCCCC (centres undefined)
A: 22

Q: Try this compound too: "O=[N+]([O-])c1ccc(NSc2ccccc2)cc1"
A: 6

Q: Also, "OCCOCCO[P+]1(OCCOCCO)n2c3ccc2C(c2ccccc2)=C2C=CC(=N2)C(c2ccccc2)=c2ccc(n21)=C(c1ccccc1)C1=NC(=C3c2ccccc2)C=C1" please.
A: 97

Q: Likewise for CN(C)CC1CCC/C(=C\c2ccc(Cl)cc2)C1=O (centres undefined) ?
A: -14

Q: // next record "CC(=O)Nc1ccc(-c2cnc3ccccc3c2)cc1"
A: 17

Q: Another compound to check: "C[CH2][Sn]([CH2]C)([O]C(=O)c1cccc(OC)c1)[O][Sn]([CH2]C)([CH2]C)[O]C(=O)c1cccc(OC)c1"
A: 40

Q: How about COc1ccc(CC[N+]2(C)COc3cc4oc(=O)cc(C)c4cc3C2)cc1OC (centres undefined) ?
A: 9

Q: Same lookup for "O=C1c2ccccc2C(=O)c2sc(Nc3cccc(Cl)c3)nc21" , please.
A: 92
